From: PubChem BioAssay (NCI)

Could you please report measured growth for the items listed next?
System: SF-539 CNS
Assay: NCI-60 one-dose screen, 48 h (100 = growth as untreated, 0 = no growth, -100 = all killed)
Conditions: 10 µM unless noted
The panel holds about 83,000 compounds, 20% with a hit somewhere; the sample as a whole holds those more often. Activity calls are given as the source filed them. The calls were made as follows: active = growth percent below 10; inactive = the rest.

Query: If you can, please state the reported growth value of O=C(/C(=C/c1ccc([N+](=O)[O-])cc1)c1ccccc1)c1ccccc1 .
Result: 83% (inactive)

Query: If you can, please state the reported growth value of CC[C@H](C)C(=O)O[C@H]1C[C@@H](C)C=C2C=C[C@H](C)[C@H](CC[C@@H]3C[C@@H](O)CC(=O)O3)[C@H]21 .
Result: 95.9% (inactive)

Query: If you can, please state the reported growth value of CCCCCCCCCCC[C@@H](C[C@H]1OC(=O)[C@H]1CCCCCC)OC(=O)[C@@H](CC(C)C)NC=O .
Result: 63.1% (inactive)

Query: If you can, please state the reported growth value of O=C(Nc1nc(-c2ccc(Cl)cc2)cs1)c1cc(O)c(O)c(O)c1 .
Result: 5.36% (active)

Query: If you can, please state the reported growth value of COc1c(O)cc2oc3cc(O)c(CC=C(C)C)c(O)c3c(=O)c2c1C/C=C(\C)CCC=C(C)C .
Result: 93.2% (inactive)

Query: If you can, please state the reported growth value of CCCC[N+](CCCC)=c1ccc2nc3c(C)cc(N(CC)CC)cc3sc-2c1 .
Result: -62.5% (active)

Query: If you can, please state the reported growth value of COc1ccc2c3c(c(OCCCN(C)C)nc2c1)-c1ccc(Cl)cc1C3=O .
Result: 13.9% (inactive)

Query: If you can, please state the reported growth value of N#Cc1c(N2CCOCC2)nc2sc3cc(Cl)ccc3n2c1=N .
Result: 97.3% (inactive)

Query: If you can, please state the reported growth value of Nc1nc(Cl)c2[nH]cnc2n1 .
Result: 97.4% (inactive)

Query: If you can, please state the reported growth value of NC(N)=NN=c1c(=O)c2ccccc2c1=O .
Result: 112% (inactive)

Query: If you can, please state the reported growth value of CCN(CC)c1ccc(CN(CC(=O)c2ccc(Cl)c(Cl)c2)Cc2ccccc2)cc1 .
Result: 108% (inactive)

Query: If you can, please state the reported growth value of O=C(Nc1ccc(Cl)cc1)Nc1ccc(Nc2nncc3ccccc23)cc1 .
Result: 33% (inactive)

Query: If you can, please state the reported growth value of C=C(C)[C@H]1CC/C(C)=C/CC[C@]2(C)O[C@H]2CC/C(C=O)=C\C1O (stereo partly drawn) .
Result: 106% (inactive)

Query: If you can, please state the reported growth value of COc1ccc(-c2nn(-c3cccc(Cl)c3)cc2C2CC(c3ccccc3)=NN2C(C)=O)cc1 (stereo not drawn) .
Result: 50.6% (inactive)

Query: If you can, please state the reported growth value of NC(N)=NC(N)=NCCCc1ccccc1 .
Result: 66.5% [100 µM] (inactive)

Query: If you can, please state the reported growth value of ClC1=C(Cl)C(Cl)=C(Cl)C1=Cc1ccc(Cl)cc1 .
Result: 91.2% (inactive)

Query: If you can, please state the reported growth value of COc1cc(C(=O)/C=C/c2cccnc2Nc2ccccc2)cc(OC)c1OC .
Result: -54.8% (active)

Query: If you can, please state the reported growth value of Cn1cc(-c2csc(-c3cn(C)c4ncccc34)n2)c2cc(F)cnc21 .
Result: 101% (inactive)

Query: If you can, please state the reported growth value of C=Cc1nn2c(CCC(=O)c3nc4ccccc4[nH]3)nnc2s1 .
Result: 113% (inactive)

Query: If you can, please state the reported growth value of O=C(CCc1nnc(Cn2cncn2)o1)c1nc2ccccc2[nH]1 .
Result: 103% (inactive)

Query: If you can, please state the reported growth value of COc1ccc2nc3cc(Cl)ccc3c(Nc3cc(C(C)C)c(O)cc3C)c2c1 .
Result: 59.5% (inactive)

Query: If you can, please state the reported growth value of c1ccc2cc(C[n+]3ccn(CCCCCCCn4cc[n+](Cc5ccc6ccccc6c5)c4)c3)ccc2c1 .
Result: 33.4% (inactive)

Query: If you can, please state the reported growth value of O=C1CN(CO)C(=O)CN1CO .
Result: 115% (inactive)

Query: If you can, please state the reported growth value of C=C1CC[C@@H]2[C@](C)(COC(C)=O)[C@H](OC(C)=O)CC[C@@]2(C)[C@@H]1CC(Nc1ccc(S(=O)(=O)Nc2cc(C)on2)cc1)C1=CCOC1=O (stereo partly drawn) .
Result: 6.3% (active)

Query: If you can, please state the reported growth value of CC(=O)c1nc2ccccc2n1CCn1cc(CC(N)C(=O)O)c2ccccc21 (stereo not drawn) .
Result: 101% (inactive)

Query: If you can, please state the reported growth value of CC(C)(C)c1ccc(C(O)CCCN2CCC(C(O)(c3ccccc3)c3ccccc3)CC2)cc1 (stereo not drawn) .
Result: -76.4% (active)

Query: If you can, please state the reported growth value of NNC(=O)C1CC2c3ccccc3C1c1ccccc12 (stereo not drawn) .
Result: 99% (inactive)

Query: If you can, please state the reported growth value of Nc1ncc(-c2cnn(C3CCNCC3)c2)cc1-c1nc2cc(Cl)ccc2o1 .
Result: -100% (active)

Query: If you can, please state the reported growth value of COC(=O)[C@]12CC[C@@H](C)[C@H](C)[C@@H]1C1=CC[C@@H]3[C@@]4(C)C[C@@H](OC(=O)c5ccco5)[C@H](O)[C@@](C)(CO)[C@@H]4[C@H](O)C[C@@]3(C)[C@]1(C)CC2 .
Result: -90.1% (active)

Query: If you can, please state the reported growth value of CC(=O)O[C@H]1C(=O)[C@@]2(C)C([C@H](OC(=O)c3ccccc3)[C@]3(O)C[C@H](OC(=O)[C@H](O)[C@@H](NC(=O)c4ccccc4)c4ccccc4)C(C)=C1C3(C)C)[C@]1(OC(C)=O)CO[C@@H]1C[C@@H]2O (stereo partly drawn) .
Result: 13.1% (inactive)

Query: If you can, please state the reported growth value of Cc1ccsc1/C=C/C1=NCCCN1C .
Result: 119% (inactive)

Query: If you can, please state the reported growth value of Cn1c(N)c(N=O)c(=O)[nH]c1=O .
Result: 105% (inactive)

Query: If you can, please state the reported growth value of CN(C)c1ccc(/C=C(\C#N)c2nc3ccccc3c(=O)[nH]2)cc1 .
Result: 93.6% (inactive)
